Biological target: KDR (Homo sapiens, UniProt P35968)
Assay: KDR cellular assay (KDR receptor phosphorylation ELISA)
Conditions: KDR transfected 3T3 (embryonic mouse) cells, VEGF stimulated; read-out: IC50 inhibition of KDR phosphorylation
Sequence (P35968 20-1356): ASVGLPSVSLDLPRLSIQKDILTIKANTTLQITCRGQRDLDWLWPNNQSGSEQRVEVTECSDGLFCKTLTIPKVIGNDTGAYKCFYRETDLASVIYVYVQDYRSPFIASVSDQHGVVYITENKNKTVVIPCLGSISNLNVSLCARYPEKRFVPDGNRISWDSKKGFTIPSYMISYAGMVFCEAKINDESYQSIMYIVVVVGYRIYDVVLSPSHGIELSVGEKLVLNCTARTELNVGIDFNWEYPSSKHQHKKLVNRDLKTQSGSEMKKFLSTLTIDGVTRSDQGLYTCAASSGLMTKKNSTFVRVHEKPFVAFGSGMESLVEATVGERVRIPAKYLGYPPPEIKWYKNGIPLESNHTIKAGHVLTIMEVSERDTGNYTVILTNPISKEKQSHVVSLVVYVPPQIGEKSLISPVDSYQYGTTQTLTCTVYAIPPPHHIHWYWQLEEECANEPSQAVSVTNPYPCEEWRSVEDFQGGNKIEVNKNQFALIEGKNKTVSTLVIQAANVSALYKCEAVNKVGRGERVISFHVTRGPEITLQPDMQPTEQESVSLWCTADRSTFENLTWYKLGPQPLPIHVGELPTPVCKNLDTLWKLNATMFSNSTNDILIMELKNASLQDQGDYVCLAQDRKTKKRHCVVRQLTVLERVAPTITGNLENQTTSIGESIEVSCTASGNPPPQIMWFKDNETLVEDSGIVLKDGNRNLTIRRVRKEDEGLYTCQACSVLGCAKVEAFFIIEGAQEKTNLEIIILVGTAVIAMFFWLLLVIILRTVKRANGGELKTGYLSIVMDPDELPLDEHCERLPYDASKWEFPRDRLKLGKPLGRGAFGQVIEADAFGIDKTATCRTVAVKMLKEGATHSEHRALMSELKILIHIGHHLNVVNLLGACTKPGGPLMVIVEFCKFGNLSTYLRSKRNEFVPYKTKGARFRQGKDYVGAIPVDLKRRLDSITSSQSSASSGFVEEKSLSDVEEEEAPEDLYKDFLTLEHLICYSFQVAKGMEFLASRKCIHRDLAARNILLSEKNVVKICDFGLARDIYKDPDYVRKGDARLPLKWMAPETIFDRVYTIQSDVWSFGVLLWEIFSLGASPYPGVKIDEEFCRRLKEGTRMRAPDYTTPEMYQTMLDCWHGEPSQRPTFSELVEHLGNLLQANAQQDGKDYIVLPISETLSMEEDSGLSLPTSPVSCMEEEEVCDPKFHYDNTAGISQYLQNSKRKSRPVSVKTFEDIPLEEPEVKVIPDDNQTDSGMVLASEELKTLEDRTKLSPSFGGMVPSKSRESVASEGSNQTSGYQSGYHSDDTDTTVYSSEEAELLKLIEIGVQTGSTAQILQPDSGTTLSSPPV
pIC50: −log10 of the molar value.
recorded.endpoint: pIC50

Sample records with pIC50:
compound	pIC50
NC(=O)[C@@H]1[C@H](Nc2nc(Nc3cnn(C4CCC4)c3)ncc2Br)[C@H]2C=C[C@@H]1C2 [Example 123]	> 7.00
Cn1cc(Nc2ncc(C(F)(F)F)c(Nc3sccc3C(N)=O)n2)cn1 [Example 152]	6.00 to 7.00

CC1(C)[C@H]2C[C@H](C(N)=O)[C@H](Nc3nc(Nc4cnn(-c5ccccc5)c4)ncc3Cl)[C@@H]1C2 [Example 189] yielded pIC50 of 6.00 to 7.00

For NC(=O)[C@@H]1[C@H](Nc2nc(Nc3cnn(C[C@H](O)CO)c3)ncc2Cl)[C@H]2C=C[C@@H]1C2 [Example 124] the compound record lists pIC50 as 6.00 to 7.00

pIC50 recorded for this compound, CC(C)CCn1cc(Nc2ncc(Br)c(N[C@H]3[C@@H](C(N)=O)[C@@H]4C=C[C@H]3C4)n2)cn1 [Example 111] , is > 7.00

====

Target: UniProt P35968
Assay: KDR cellular assay (KDR receptor phosphorylation ELISA)
Conditions: KDR transfected 3T3 (embryonic mouse) cells, VEGF stimulated; read-out: IC50 inhibition of KDR phosphorylation
recorded.endpoint: IC50

Please review the following examples before continuing.
compound	measured.result
CC(C)NC(=O)C1CCCC1Nc1nc(Nc2cnn(C3CCNCC3)c2)ncc1Cl (racemic)	100 to 1000 nM
NC(=O)[C@@H]1[C@H](Nc2nc(Nc3cnn(CCc4cccc(Cl)c4)c3)ncc2Cl)[C@H]2C=C[C@@H]1C2	100 to 1000 nM
CN1CCN(CCn2cc(Nc3ncc(Cl)c(N[C@H]4[C@@H](C(N)=O)C[C@H]5C[C@@H]4C5(C)C)n3)cn2)CC1	100 to 1000 nM
NC(=O)[C@@H]1[C@H](Nc2nc(Nc3cnn([C@@H]4CCOC4)c3)ncc2Cl)[C@H]2C=C[C@@H]1C2	< 100 nM
OCCn1cc(Nc2ncc(Cl)c(Nc3ccc4[nH]ncc4c3)n2)cn1	100 to 1000 nM

// `NC(=O)[C@@H]1[C@H](Nc2nc(Nc3cnn(Cc4ccccc4)c3)ncc2Br)[C@H]2C=C[C@@H]1C2` : IC50 value = < 100 nM

Input `NC(=O)[C@@H]1[C@H](Nc2nc(Nc3cnn(CC(=O)O)c3)ncc2Cl)[C@H]2C=C[C@@H]1C2` . Output IC50: 100 to 1000 nM

Record summary for Cn1cc(Nc2ncc(Cl)c(N[C@@H]3[C@H](C(N)=O)[C@H]4C=C[C@@H]3C4)n2)cn1.Cn1cc(Nc2ncc(Cl)c(N[C@H]3[C@@H](C(N)=O)[C@@H]4C=C[C@H]3C4)n2)cn1 (mixture of isomers) : reported IC50 = < 100 nM

Form field IC50, entry `Cc1nn(C)cc1Nc1ncc(Cl)c(N[C@H]2[C@@H](C(N)=O)[C@@H]3C=C[C@H]2C3)n1` : 100 to 1000 nM

For `NC(=O)[C@@H]1[C@H](Nc2nc(Nc3cnn([C@H]4CCOC4)c3)ncc2Br)[C@H]2C=C[C@@H]1C2` the compound record lists IC50 as < 100 nM

Recorded result, `NC(=O)[C@@H]1[C@H](Nc2nc(Nc3cnn(Cc4ccc(Cl)cc4)c3)ncc2Cl)[C@H]2C=C[C@@H]1C2` , IC50: < 100 nM

GET /value?item= Cc1nc(Nc2cnn(C)c2)nc(N[C@@H]2[C@H](C(N)=O)[C@H]3C=C[C@@H]2C3)c1Cl.Cc1nc(Nc2cnn(C)c2)nc(N[C@H]2[C@@H](C(N)=O)[C@@H]3C=C[C@H]2C3)c1Cl (mixture of isomers) &field=IC50 returns 100 to 1000 nM

IC50 measured on `NC(=O)[C@@H]1[C@H](Nc2nc(Nc3cnn(C[C@H]4CCCN4)c3)ncc2Cl)[C@H]2C=C[C@@H]1C2` = < 100 nM

Noted for Cn1cc(Nc2ncc(Br)c(N[C@@H]3[C@H](C(N)=O)[C@H]4C=C[C@@H]3C4)n2)cn1.Cn1cc(Nc2ncc(Br)c(N[C@H]3[C@@H](C(N)=O)[C@@H]4C=C[C@H]3C4)n2)cn1 (mixture of isomers) : its IC50 reads < 100 nM

Sure, the documented IC50 for `CCn1cc(Nc2ncc([N+](=O)[O-])c(N[C@H]3[C@@H](C(N)=O)[C@@H]4C=C[C@H]3C4)n2)cn1` is 100 to 1000 nM

So for `CS(=O)(=O)CCn1cc(Nc2ncc(Br)c(N[C@H]3[C@@H](C(N)=O)[C@@H]4C=C[C@H]3C4)n2)cn1` , the logged IC50 turned out to be < 100 nM

In plain terms, Cn1cc(Nc2ncc(Cl)c(N[C@@H]3CCCC[C@@H]3C(N)=O)n2)cn1.Cn1cc(Nc2ncc(Cl)c(N[C@H]3CCCC[C@H]3C(N)=O)n2)cn1 (mixture of isomers) has a documented IC50 of 100 to 1000 nM

According to the records, this compound `C[C@@H](O)Cn1cc(Nc2ncc(Cl)c(N[C@@H]3[C@H]4CC[C@H](C4)[C@@H]3C(N)=O)n2)cn1` displays IC50 of 100 to 1000 nM

Value of IC50 reported for the compound Cn1cc(Nc2ncc(C(N)=O)c(NC3C4C=CC(C4)C3C(N)=O)n2)cn1 (mixture of isomers) is 100 to 1000 nM

Record `NC(=O)[C@@H]1[C@H](Nc2nc(Nc3cnn(Cc4ccc5ccccc5c4)c3)ncc2Cl)[C@H]2C=C[C@@H]1C2` , field IC50: < 100 nM

====

For KDR (Homo sapiens), measured Ki is reported for the entries below.

molecule	measured.result
CN1CCC(Cn2cc(Nc3ncc(Cl)c(N[C@H]4[C@@H](C(N)=O)[C@@H]5C=C[C@H]4C5)n3)cn2)CC1	< 0.1 µM
CC(O)Cn1cc(Nc2ncc(F)c(NC3C4C=CC(C4)C3C(N)=O)n2)cn1 (mixture of isomers)	1 to 5 µM

From here, focus on the item given below.
Measured Ki, `COc1cccc(CCn2cc(Nc3ncc(Cl)c(N[C@H]4[C@@H](C(N)=O)[C@@H]5C=C[C@H]4C5)n3)cn2)c1` : < 0.1 µM

====

Molecular target: KDR (Homo sapiens, UniProt P35968)
Assay: KDR cellular assay (KDR receptor phosphorylation ELISA)
Conditions: KDR transfected 3T3 (embryonic mouse) cells, VEGF stimulated; read-out: IC50 inhibition of KDR phosphorylation
recorded.endpoint: IC50

compound	target	IC50
CN1CCN(CCn2cc(Nc3ncc(Cl)c(N[C@@H]4[C@H]5CC[C@H](C5)[C@@H]4C(N)=O)n3)cn2)CC1	KDR (Homo sapiens, UniProt P35968)	< 100 nM

Known value: KDR (Homo sapiens, UniProt P35968) IC50 of the compound NC(=O)[C@@H]1[C@H](Nc2nc(Nc3cnn(CC(F)(F)F)c3)ncc2C(F)(F)F)[C@H]2C=C[C@@H]1C2 (racemic) equals < 100 nM

KDR (Homo sapiens, UniProt P35968) data for `COc1ccc(Cn2cc(Nc3ncc(Cl)c(N[C@H]4[C@@H](C(N)=O)[C@@H]5C=C[C@H]4C5)n3)cn2)cc1F` ; its IC50: < 100 nM

====

Molecular target: KDR (Homo sapiens, UniProt P35968)
Experiment: KDR cellular assay (KDR receptor phosphorylation ELISA)
Conditions: KDR transfected 3T3 (embryonic mouse) cells, VEGF stimulated; read-out: IC50 inhibition of KDR phosphorylation
pIC50: −log10 of the molar value.
// pIC50 lookup, one value per entry

compound	target	pIC50
CCn1cc(Nc2ncc(C(F)(F)F)c(N[C@@H]3[C@H]4CC[C@H](C4)[C@@H]3C(N)=O)n2)cn1.CCn1cc(Nc2ncc(C(F)(F)F)c(N[C@H]3[C@@H]4CC[C@@H](C4)[C@H]3C(N)=O)n2)cn1 (mixture of isomers)	KDR (Homo sapiens, UniProt P35968)	> 7.00

In plain terms, `CC(C)CCn1cc(Nc2ncc(Cl)c(N[C@H]3[C@@H](C(N)=O)[C@@H]4C=C[C@H]3C4)n2)cn1` has a documented pIC50 of > 7.00

Recorded result, `NC(=O)[C@@H]1[C@H](Nc2nc(Nc3cnn(C[C@@H](O)CO)c3)ncc2Cl)[C@H]2C=C[C@@H]1C2` , pIC50: 6.00 to 7.00

Looking up `CC(C)n1cc(Nc2ncc(Cl)c(N[C@H]3[C@@H](C(N)=O)[C@@H]4C=C[C@H]3C4)n2)cn1` , I found its pIC50 recorded as > 7.00

// field: pIC50; key: `COc1cccc(CCn2cc(Nc3ncc(Br)c(N[C@H]4[C@@H](C(N)=O)[C@@H]5C=C[C@H]4C5)n3)cn2)c1` ; value = > 7.00
